Assay: Inhibitory activity against Hepatitis B virus reverse transcriptase (HBV-RT) at 0.1 ug/mL
Label rule, in plain words: inhibition of 60% and up is Fulfilled, under 60% is Not fulfilled.

>>> df
                                    molecule          label
 0  COC(CNC(=O)c1ccc(C(=O)N2CCN(c3ncccc3NC(C)C)CC2)nc1)OC      Fulfilled
 1  Cc1cc(NC(=O)c2ccc(C(=O)N3CCN(c4ncccc4NC(C)C)CC3)nc2)no1  Not fulfilled
 2  COCCNC(=O)c1ccc(C(=O)N2CCN(c3ncccc3NC(C)C)CC2)nc1      Fulfilled
 3  Cc1ccn(NC(=O)c2ccc(C(=O)N3CCN(c4ncccc4NC(C)C)CC3)nc2)n1  Not fulfilled
 4  CC(C)NC(=O)c1ccc(C(=O)N2CCN(c3ncccc3N)CC2)nc1      Fulfilled
 5  CC(C)(CO)NC(=O)c1ccc(C(=O)N2CCN(c3ncccc3N)CC2)nc1      Fulfilled
 6  COCCCNC(=O)c1ccc(C(=O)N2CCN(c3ncccc3NC(C)C)CC2)nc1  Not fulfilled
 7  CCNc1cccnc1N1CCN(C(=O)c2ccc(C(=O)NC(C)(C)CO)cn2)CC1  Not fulfilled
 8  CC(C)Nc1cccnc1N1CCN(C(=O)c2ccc(C(=O)NC(C)(C)CO)cn2)CC1      Fulfilled
 9  CC(C)Nc1cccnc1N1CCN(C(=O)c2ccc(C(=O)NC3CCCC3)cn2)CC1      Fulfilled
10  CCNc1cccnc1N1CCN(C(=O)c2ccc(C(=O)NCc3ccccn3)cn2)CC1  Not fulfilled
11  COCCCNC(=O)c1ccc(C(=O)N2CCN(c3ncccc3NCC(C)C)CC2)nc1  Not fulfilled
12  CC(C)CNC(=O)c1ccc(C(=O)N2CCN(c3ncccc3NC(C)C)CC2)nc1      Fulfilled
13  CC(C)Nc1cccnc1N1CCN(C(=O)c2ccc(C(=O)NC3CC3)cn2)CC1  Not fulfilled
14  Nc1cccnc1N1CCN(C(=O)c2ccc(C(=O)NCc3ccccn3)cn2)CC1  Not fulfilled
15  CC(C)Nc1cccnc1N1CCN(C(=O)c2ccc(C(=O)NCc3ccccn3)cn2)CC1      Fulfilled
16  CC(C)Nc1cccnc1N1CCN(C(=O)c2ccc(C(=O)Nc3ccccn3)cn2)CC1  Not fulfilled
17  Nc1cccnc1N1CCN(C(=O)c2ccc(C(=O)NCCO)cn2)CC1      Fulfilled
18  COCCNC(=O)c1ccc(C(=O)N2CCN(c3ncccc3NCC(C)C)CC2)nc1      Fulfilled
19  CC(C)Nc1cccnc1N1CCN(C(=O)c2ccc(C(=O)NCCO)cn2)CC1  Not fulfilled
20  CC(C)CNc1cccnc1N1CCN(C(=O)c2ccc(C(=O)NC(C)(C)CO)cn2)CC1      Fulfilled
21  CCNc1cccnc1N1CCN(C(=O)c2ccc(C(=O)NCCN3CCOCC3)cn2)CC1  Not fulfilled
22  CCNc1cccnc1N1CCN(C(=O)c2ccc(C(=O)NCCOC)cn2)CC1  Not fulfilled
23  CCNc1cccnc1N1CCN(C(=O)c2ccc(C(=O)NCCO)cn2)CC1      Fulfilled
24  CC(C)Nc1cccnc1N1CCN(C(=O)c2ccc(C(=O)NCCCn3ccnc3)cn2)CC1      Fulfilled
25  CC(C)CNc1cccnc1N1CCN(C(=O)c2ccc(C(=O)NC(C)C)cn2)CC1      Fulfilled
26  CC(C)CNc1cccnc1N1CCN(C(=O)c2ccc(C(=O)NCCCn3ccnc3)cn2)CC1      Fulfilled
27  CC(C)NC(=O)c1ccc(C(=O)N2CCN(c3ncccc3NC(C)C)CC2)nc1  Not fulfilled
28  CC(C)Nc1cccnc1N1CCN(C(=O)c2ccc(C(=O)NC(C)(C)C)cn2)CC1      Fulfilled
29  CCNc1cccnc1N1CCN(C(=O)c2ccc(C(=O)NC(C)C)cn2)CC1      Fulfilled
30  CC(C)CNc1cccnc1N1CCN(C(=O)c2ccc(C(=O)NC3CC3)cn2)CC1      Fulfilled
31  CC(C)CNc1cccnc1N1CCN(C(=O)c2ccc(C(=O)Nc3ncccc3O)cn2)CC1  Not fulfilled

====

Assay: Inhibitory activity against Hepatitis B virus reverse transcriptase (HBV-RT) at 1 ug/mL
READOUT LABEL: inhibition

>>> print(df.to_string())
                                    molecule  readout_label  reading
 0  CC(C)Nc1cccnc1N1CCN(C(=O)c2ccc(C(=O)NC3CCCC3)cn2)CC1     inhibition      75%
 1  CCNc1cccnc1N1CCN(C(=O)c2ccc(C(=O)NC(C)C)cn2)CC1     inhibition      85%
 2  CC(C)CNc1cccnc1N1CCN(C(=O)c2ccc(C(=O)Nc3ncccc3O)cn2)CC1     inhibition      71%
 3  COCCNC(=O)c1ccc(C(=O)N2CCN(c3ncccc3NC(C)C)CC2)nc1     inhibition      80%
 4  CC(C)CNc1cccnc1N1CCN(C(=O)c2ccc(C(=O)NC(C)(C)CO)cn2)CC1     inhibition      90%
 5  CC(C)CNc1cccnc1N1CCN(C(=O)c2ccc(C(=O)NCCO)cn2)CC1     inhibition      86%
 6  CC(C)Nc1cccnc1N1CCN(C(=O)c2ccc(C(=O)Nc3ccccn3)cn2)CC1     inhibition      74%
 7  CCNc1cccnc1N1CCN(C(=O)c2ccc(C(=O)NCc3ccccn3)cn2)CC1     inhibition      70%
 8  CC(C)NC(=O)c1ccc(C(=O)N2CCN(c3ncccc3NC(C)C)CC2)nc1     inhibition      65%
 9  CC(C)(CO)NC(=O)c1ccc(C(=O)N2CCN(c3ncccc3N)CC2)nc1     inhibition      70%
10  CCNc1cccnc1N1CCN(C(=O)c2ccc(C(=O)NCCO)cn2)CC1     inhibition      84%
11  CC(C)Nc1cccnc1N1CCN(C(=O)c2ccc(C(=O)NC(C)(C)C)cn2)CC1     inhibition      88%
12  CC(C)Nc1cccnc1N1CCN(C(=O)c2ccc(C(=O)NCCN3CCOCC3)cn2)CC1     inhibition      70%
13  CC(C)CNC(=O)c1ccc(C(=O)N2CCN(c3ncccc3NC(C)C)CC2)nc1     inhibition      83%
14  CC(C)NC(=O)c1ccc(C(=O)N2CCN(c3ncccc3N)CC2)nc1     inhibition      79%
15  CC(C)CNc1cccnc1N1CCN(C(=O)c2ccc(C(=O)NC3CC3)cn2)CC1     inhibition      87%
16  Cc1cc(NC(=O)c2ccc(C(=O)N3CCN(c4ncccc4NC(C)C)CC3)nc2)no1     inhibition      72%
17  Cc1ccn(NC(=O)c2ccc(C(=O)N3CCN(c4ncccc4NC(C)C)CC3)nc2)n1     inhibition      70%
18  CC(C)Nc1cccnc1N1CCN(C(=O)c2ccc(C(=O)NCCO)cn2)CC1     inhibition      54%
19  CC(C)CNc1cccnc1N1CCN(C(=O)c2ccc(C(=O)NCCCn3ccnc3)cn2)CC1     inhibition      88%

====

Assay: Inhibitory activity against Hepatitis B virus reverse transcriptase (HBV-RT) at 0.1 ug/mL
Entries and their inhibition
READOUT LABEL: inhibition (%)

In [3]: df
Out[3]:
                                   molecule  readout_label  unit_name  reading
0  CC(C)Nc1cccnc1N1CCN(C(=O)c2ccc(C(=O)NCCN3CCOCC3)cn2)CC1     inhibition          %       60
1  CC(C)Nc1cccnc1N1CCN(C(=O)c2ccc(C(=O)NCCCO)cn2)CC1     inhibition          %       60
2  CC(C)CNc1cccnc1N1CCN(C(=O)c2ccc(C(=O)NCCO)cn2)CC1     inhibition          %       60
